- Procedure Details: amyloid nucleation score (Sup35N fusion, yeast selection) (log enrichment); library NNK2; higher = more nucleation; inactive = no reads after selection;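 also: zero at mode of non-aggregating sequences after 7 days selection at 30°C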
substances and their reported amyloid nucleation score
# respond with the number and nothing more

Example results:
INSERT INTO assay_data (substance, data_value) VALUES
  ('RVLISQGLMYISHTMSG', 5.34),
  ('PASISLNFS', 1.58),
  ('NVSGMFISMLIFRIMHHGQC', 5.11),
  ('YSQGDGL', -0.038),
  ('SFIWKLYMLHWNWRSTEEGE', -0.17),
  ('MVSVKSCYYVSVSVLSRFHF', 0.065);

Sample PRLPTQTITK ; amyloid nucleation score observed: 1.53

Sample FVTCYKLWMAFYTMVQSRKS ; amyloid nucleation score observed: 1.17

Sample MNGCTTANGIVDTRSNAFTC ; amyloid nucleation score observed: 1.87

Sample KCGEKRMKCFSDCRRWWLCQ ; amyloid nucleation score observed: 4.88

Sample CNYRVA ; amyloid nucleation score observed: 0.276

Sample RLCTVRSP ; amyloid nucleation score observed: 1.55

Sample HWLRSGWELNVRVLGPQATF ; amyloid nucleation score observed: 0.982

Sample LVLLSFGSV ; amyloid nucleation score observed: -0.127

Sample NIDICDVWFMNCLYIILVAQ ; amyloid nucleation score observed: 5.19

====

- Procedure Details: amyloid nucleation score (Sup35N fusion, yeast selection) (log enrichment); library NNK2; higher = more nucleation; inactive = no reads after selection
I would appreciate it if you labelled entries 1.0 when amyloid nucleation score is 2 or higher, otherwise 0.0.

Take a look at these entries with their results.
INSERT INTO results (polymer_sequence, class) VALUES
  ('FRNFELSRTFVVYNPVLQCY', 0.0),
  ('LIFEEQENAGGMASIMSSMV', 0.0),
  ('RTDSGTMMCRVWAMYPESTS', 0.0),
  ('YKWSQASTNGHARISSAQQS', 1.0),
  ('IFVLNKQNYLRIYNVPPLLI', 1.0);

Kindly review the next sequence as well.
Textbook exercise: given the entry LMTPVNSILLRLWCSIFLCF , state whether its amyloid nucleation score is greater than or equal to 2. 1.0

====

substances and their reported amyloid nucleation score
- Procedure Details: amyloid nucleation score (Sup35N fusion, yeast selection) (log enrichment); library NNK1; higher = more nucleation; inactive = no reads after selection
# respond with the number and nothing more

Example results:
INSERT INTO assay_data (substance, property_label, data_value) VALUES
  ('SGSDVILAYTPTPPGDSPVW', 'amyloid nucleation score', 0.645),
  ('TRWCEWRYRSPDRYASLTGF', 'amyloid nucleation score', -0.06);

Sample SNVDSWFGRVTSA ; amyloid nucleation score observed: -0.698

Sample AGCVPMGEGLGTLESNYSKY ; amyloid nucleation score observed: 0.637

Sample TEEFYPARSCMK ; amyloid nucleation score observed: -1.87

Sample QVSANSKNKSVVLFQIKSNE ; amyloid nucleation score observed: -0.17

====

- Procedure Details: amyloid nucleation score (Sup35N fusion, yeast selection) (log enrichment); library NNK3; higher = more nucleation; inactive = no reads after selection
Property Label: amyloid nucleation score

INSERT INTO results (polymer_sequence, property_label, data_value) VALUES
  ('TVGTIPFWVALPSTSLNR', 'amyloid nucleation score', 'inactive'),
  ('ILTHTEVCIPSVRTLSGCKG', 'amyloid nucleation score', 'inactive'),
  ('SVGGEWRS', 'amyloid nucleation score', 1.34),
  ('HWHRLTSCGSRLGTGVHVVL', 'amyloid nucleation score', 'inactive'),
  ('SWYAKGFI', 'amyloid nucleation score', 'inactive');

# ---- query sequence ----
Sample CTYDSLRILAYRANQTNWFQ ; amyloid nucleation score observed: -0.278
